- Test system: XIP peptide (Xip251-270) binding
- procedure text: XIP fragment 251-270 binding compounds – biochemical, small-molecule microarray, fluorescence 635/667 nm, 0.1 µg/mL protein, primary screen (AID 1182)
- setup conditions: fluorescent protein binding, 635 nm, higher = more signal, called active from +8 up or from −8 down
measured attribute: composite z-score
One number for each entry.

Look up composite z-score: CN(C)CCCC[C@@H]1NC(=O)[C@@H]2C[C@H](C(=O)NCCCCCCN)[C@H](c3ccc(O)cc3)N2C1=O
0.674

Hello, I would appreciate it if you could give composite z-score for each entry below.
1. O=C1OCCC/C=C\[C@H]2OC34C=CCN(Cn5nnc6ccccc65)C(=O)[C@H]3N(CCCO)C(=O)[C@@H]4C12 (some centres undefined)
2. C=CCOC(=O)[C@H]1[C@@H]2C(=O)O[C@@H](c3ccccc3)[C@@H](c3ccccc3)N2[C@@H](c2ccc(OCCOC(=O)[C@@H]3C[C@@H]4C(=O)NCC(=O)N4[C@@H]3c3ccc(O)cc3)cc2)[C@]12C(=O)Nc1ccc(I)cc12
3. CC(C)CNC(=O)[C@@]1(C)c2ccccc2C(=O)N(C(C)C)[C@H]1c1ccc(CO)cc1
4. Cc1ccc(N2C(=O)c3ccccc3[C@@H](C(=O)NCC(C)C)[C@@H]2c2ccc(CO)cc2)nc1
5. COc1ccc([Si](C)(C)[C@@H]2[C@@H](CCO)O[C@]3(C(=O)N(Cc4cccc(N(C=O)c5ccccc5)c4)c4ccccc43)[C@H]2C)cc1
6. [N-]=[N+]=NCc1ccccc1C[C@]1(C(=O)NCC(O)CO)COC(c2ccc(OCCCO)cc2)=N1 (some centres undefined)

[-0.021, 0.2, -0.776, 0.184, 1.31, 0.54]

---

- assay target: Albumin (Bos taurus) (UniProt P02769)
- Sequence (P02769 whole entry, looked up): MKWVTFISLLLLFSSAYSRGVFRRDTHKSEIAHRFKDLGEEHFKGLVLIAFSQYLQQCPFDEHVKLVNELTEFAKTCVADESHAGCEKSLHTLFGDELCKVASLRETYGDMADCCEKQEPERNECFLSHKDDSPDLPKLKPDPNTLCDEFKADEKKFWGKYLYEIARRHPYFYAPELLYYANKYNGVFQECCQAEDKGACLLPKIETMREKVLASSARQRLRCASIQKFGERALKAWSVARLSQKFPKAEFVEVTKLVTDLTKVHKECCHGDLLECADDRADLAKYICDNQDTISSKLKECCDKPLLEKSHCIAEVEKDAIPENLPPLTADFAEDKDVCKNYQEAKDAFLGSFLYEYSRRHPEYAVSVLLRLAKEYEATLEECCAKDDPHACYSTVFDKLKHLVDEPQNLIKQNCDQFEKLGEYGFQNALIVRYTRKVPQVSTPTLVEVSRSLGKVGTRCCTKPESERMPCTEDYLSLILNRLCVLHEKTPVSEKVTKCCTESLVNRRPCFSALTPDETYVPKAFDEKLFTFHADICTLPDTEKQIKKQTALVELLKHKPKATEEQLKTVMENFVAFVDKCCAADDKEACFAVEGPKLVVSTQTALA
- procedure text: compounds binding labelled BSA control protein – biochemical, small-molecule microarray, Alexa647 label, 635/667 nm fluorescence, artefact control for SMM control protein annotation, profiling panel (AID 1118);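 note: score merges 667 nm emission intensity and signal-to-noise per printed compound spot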
- setup conditions: BSA-A647 binding, fluorescence 635 nm, higher = more signal
So I've got a bunch of compounds here, and I need their composite z-score values.
One number for each entry.

Look up composite z-score: C=CC[C@]1(C(=O)NCCN2CCOCC2)N=C(c2ccc(OCCCO)cc2)O[C@H]1c1ccccc1N=[N+]=[N-]
0.927

Hello, I would appreciate it if you could give composite z-score for each entry below.
1. COc1ccc(C#Cc2ccc3c(c2)[C@]2(C(=O)N3)[C@H](c3ccc(OCCO)cc3)N3[C@H](c4ccccc4)[C@H](c4ccccc4)OC(=O)[C@H]3[C@@H]2C(=O)Nc2nc3ccccc3s2)cc1
2. CN(C)CCCCNC(=O)[C@@H]1C[C@@H]2C(=O)N[C@@H](CCCCN)C(=O)N2[C@@H]1c1cccc(OCCO)c1

[0.562, -0.564]

---

- assay target: Calmodulin-1 (Homo sapiens) (UniProt P0DP23)
- procedure text: small molecules binding Ca-loaded calmodulin-1 – biochemical, small-molecule microarray, Cy5-labelled CALM1, plus calcium, artefact control for SMM control-protein annotation, profiling panel (AID 1112);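 note: score merges spot fluorescence with signal to noise from triplicate slides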
- setup conditions: Cy5-CALM1 binding fluorescence, higher = more signal
So I've got a bunch of compounds here, and I need their composite z-score values.
Answers are plain numbers.

Here are 5 compounds together with their reported answers.
Look up composite z-score: CCOC(=O)C[C@H]1[C@H](OC(=O)c2cc3ccccc3oc2=O)[C@@H](NC(=O)c2ccc3ccccc3c2)c2cc(OCCCO)ccc2N1C(=O)c1ccccc1
-0.337

Look up composite z-score: C=CCN1Cc2ccccc2C[C@@]2(COC(c3ccc(OCCCO)cc3)=N2)C1=O
-0.583

Look up composite z-score: O=C1OCC=C[C@H]2OC34C=CCN(c5ccc(Cl)cc5)C(=O)[C@H]3N(CCCO)C(=O)[C@@H]4[C@@H]12 (some centres undefined)
0.954

Look up composite z-score: C=CCOC(=O)[C@H]1[C@@H]2C(=O)O[C@@H](c3ccccc3)[C@@H](c3ccccc3)N2[C@@H](c2ccc(OCCOC(=O)[C@@H]3C[C@@H]4C(=O)NCC(=O)N4[C@@H]3c3ccc(O)cc3)cc2)[C@]12C(=O)Nc1ccc(I)cc12
0.341

Look up composite z-score: C#C[C@H]1Oc2ccccc2S(=O)(=O)N2CCC[C@@H]12
-0.495

Hello, I would appreciate it if you could give composite z-score for each entry below.
1. COC(=O)[C@@]1(Cc2ccc(F)cc2)[C@H]2c3cc(C(=O)N(C)C)n(CCc4c[nH]c5ccc(OC)cc45)c3C[C@H]2CN1C(=O)c1ccccc1
2. CCCCCCCCCCC(O)C1C=CC2C(=O)N(c3ccccc3)C(=O)C2N1Nc1ccc([N+](=O)[O-])cc1 (centres undefined)
3. O=C1O[C@@H](c2ccccc2)[C@@H](c2ccccc2)N2[C@@H](c3ccccc3OCCO)[C@]3(C(=O)Nc4ccc(C#CC5(O)CCCCCC5)cc43)[C@@H](C(=O)NC[C@H](O)c3ccccc3)[C@H]12

1.16
0.496
0.923

Hello, I would appreciate it if you could give composite z-score for each entry below.
1. O=C1OCC=C[C@H]2OC34C=CCN(Cc5ccccc5)C(=O)[C@H]3N(CCCO)C(=O)[C@@H]4[C@@H]12 (some centres undefined)
2. COCCCNC(=O)[C@@]1(C)c2ccccc2C(=O)N(Cc2ccccc2)[C@H]1c1ccc(CO)cc1
3. COc1cc2c(cc1O)C(c1ccc(CN3CCCC3)cc1)N(Cc1sc3ccccc3c1Cl)CC2 (centres undefined)
4. O=C(NCC(O)CO)[C@@]1(Cc2ccccc2)COC(c2ccc(OCCCO)cc2)=N1 (some centres undefined)
5. COCCOC(=O)N1C(=O)[C@@]2(c3cc(C#CC4=CCCCC4)ccc31)[C@H](C(=O)N1CCN(c3ncccn3)CC1)[C@H]1C(=O)O[C@H](c3ccccc3)[C@H](c3ccccc3)N1[C@@H]2c1ccc(OCCO)cc1
6. CCOC(=O)N1C(c2ccc(OCCCO)cc2)=NC(C(=O)OC)N1C(=O)OCC (centres undefined)

1: 0.918; 2: -0.634; 3: -0.935; 4: 1.11; 5: -0.252; 6: 0.127
